Biological target: IRAK4 (Homo sapiens, UniProt Q9NWZ3)
Construct: endogenous in cells; host or cells: Karpas299
Sequence (Q9NWZ3 1-460): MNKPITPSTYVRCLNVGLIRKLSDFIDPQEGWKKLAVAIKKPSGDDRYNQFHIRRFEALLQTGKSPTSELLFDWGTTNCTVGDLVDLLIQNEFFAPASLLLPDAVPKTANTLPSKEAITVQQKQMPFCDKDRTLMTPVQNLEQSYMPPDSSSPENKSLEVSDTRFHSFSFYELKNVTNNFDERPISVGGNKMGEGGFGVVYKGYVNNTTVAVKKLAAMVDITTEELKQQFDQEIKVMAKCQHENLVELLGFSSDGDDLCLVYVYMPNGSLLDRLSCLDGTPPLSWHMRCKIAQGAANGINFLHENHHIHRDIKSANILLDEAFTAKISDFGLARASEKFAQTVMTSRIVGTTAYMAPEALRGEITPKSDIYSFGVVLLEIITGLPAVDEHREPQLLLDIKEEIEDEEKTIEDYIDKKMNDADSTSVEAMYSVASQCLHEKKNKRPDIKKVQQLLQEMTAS
Assay: IRAK4 Degradation Assay (Karpas299, HTRF/TR-FRET)
Type: cell-based
Details: Karpas-299 cells, 24 h treatment; maximum percentage of degradation; read-out: IRAK4 in Karpas-299 (24 h) Dmax (%)
For each entry below, report its Dmax value.
A number alone suffices; assume %.

Task item: Form entry - test system: IRAK4 (Homo sapiens, UniProt Q9NWZ3); read-out: Dmax; compound: C[C@H]1CN(C(=O)C2CN(c3cc(F)c([C@H]4CCC(=O)NC4=O)c(F)c3)C2)CCN1[C@H]1CC[C@H](n2cc3cc(NC(=O)c4ccc5cc(C#N)cnn45)c(C(C)(C)O)cc3n2)CC1 [Example 304]
Reply: 96

Task item: Form entry - test system: IRAK4 (Homo sapiens, UniProt Q9NWZ3); read-out: Dmax; compound: CC(C)(O)c1cc2nn([C@H]3CC[C@H](CN4CCN(C5CN(c6cc(F)c([C@H]7CCC(=O)NC7=O)c(F)c6)C5)CC4)CC3)cc2cc1NC(=O)c1ccc2cc(C#N)cnn12 [Example 421]
Reply: 95

Task item: Form entry - test system: IRAK4 (Homo sapiens, UniProt Q9NWZ3); read-out: Dmax; compound: O=C1CC[C@H](c2c(F)cc(N3CC(C(=O)N4CCN(c5ccc(-n6cc(NC(=O)c7coc(-c8ccnc(NCC(F)(F)F)c8)n7)c(C(F)F)n6)cn5)CC4)C3)cc2F)C(=O)N1 [Example 29]
Reply: 96

Task item: Form entry - test system: IRAK4 (Homo sapiens, UniProt Q9NWZ3); read-out: Dmax; compound: COC[C@@H]1CN(C2CN(c3cc(F)c([C@H]4CCC(=O)NC4=O)c(F)c3)C2)CCN1[C@H]1CC[C@H](n2cc3cc(NC(=O)c4ccc5cc(C#N)cnn45)c(C(C)(C)O)cc3n2)CC1 [Example 327]
Reply: 90

Task item: Form entry - test system: IRAK4 (Homo sapiens, UniProt Q9NWZ3); read-out: Dmax; compound: Cc1nc(C2CCC(=O)NC2=O)ccc1N1CCC(N2CCN(C[C@H]3CC[C@H](n4cc5cc(NC(=O)c6ccc7cc(C#N)cnn67)c(C(C)(C)O)cc5n4)CC3)CC2)CC1 (stereo partly shown) [Example 420]
Reply: 97

Task item: Form entry - test system: IRAK4 (Homo sapiens, UniProt Q9NWZ3); read-out: Dmax; compound: COc1cc(N2CC(C(=O)N3CCN([C@H]4CC[C@H](n5cc6cc(NC(=O)c7ccc8cc(C#N)cnn78)c(C(C)(C)O)cc6n5)CC4)CC3)C2)ccc1N1CCC(=O)NC1=O [Example 269]
Reply: 97

Task item: Form entry - test system: IRAK4 (Homo sapiens, UniProt Q9NWZ3); read-out: Dmax; compound: COc1cc2nn(C3CCN(C(=O)[C@H]4CC[C@H](Oc5ccc(C6CCC(=O)NC6=O)cc5)CC4)CC3)cc2cc1NC(=O)c1cccc(C(F)(F)F)n1 (stereo partly shown) [Example 35]
Reply: 10

Task item: Form entry - test system: IRAK4 (Homo sapiens, UniProt Q9NWZ3); read-out: Dmax; compound: CC(C)(O)c1cc2nn([C@H]3CC[C@H](N4CCN(C5CN(c6cc(F)c([C@H]7CCC(=O)NC7=O)c(F)c6)C5)CC4)CC3)cc2cc1NC(=O)c1coc2cccnc12 [Example 404]
Reply: 93

Task item: Form entry - test system: IRAK4 (Homo sapiens, UniProt Q9NWZ3); read-out: Dmax; compound: CC(C)(O)c1cc2nn([C@H]3CC[C@H](N4CCN(C5CCN(c6cc(F)c(N7CCC(=O)NC7=O)c(F)c6)CC5)CC4)CC3)cc2cc1NC(=O)c1ccc2cc(C#N)cnn12 [Example 293]
Reply: 96

Task item: Form entry - test system: IRAK4 (Homo sapiens, UniProt Q9NWZ3); read-out: Dmax; compound: C[C@H]1CN([C@H]2CC[C@H](n3cc4cc(NC(=O)c5ccc6cc(C#N)cnn56)c(C(C)(C)O)cc4n3)CC2)CCN1C(=O)C1CN(c2cc(F)c([C@H]3CCC(=O)NC3=O)c(F)c2)C1 [Example 311]
Reply: 98

The measured values listed here are drawn from patent US20250195513A1.
